Consider the following compounds and their measured ED50 readings.
Test system: Mus musculus
Test: In vivo effective dose required to protect 6 male CD1 mice against tonic convulsions following iv administration for a pretreatment time of 60 min
Assay type: functional
measuredParameter: ED50 (mg/kg)

O=C(O)CCC(=O)NC1c2ccccc2-c2nc(O)c3nc(C(=O)O)cn3c21 (stereo not given)
3
CC1(CCCCC(=O)O)c2ccccc2-c2nc(O)c3nc(C(=O)O)cn3c21 (stereo not given)
15
O=C(O)c1cn2c3c(nc(O)c2n1)-c1ccccc1C3n1cccc1 (stereo not given)
17
O=c1[nH]c2cc(-n3ccnc3)c([N+](=O)[O-])cc2[nH]c1=O [YM-90K]
40

###

Tested on: Mus musculus
Experiment: In vivo effective dose required to protect 6 male CD1 mice against tonic convulsions following iv administration for a pretreatment time of 5 min
Type: functional
ED50 for assorted compounds
measuredParameter: ED50 (mg/kg)

O=c1[nH]c2cc(C(F)(F)F)c(N3CCOCC3)cc2n(CP(=O)(O)O)c1=O [FANAPANEL]
36
O=C(O)CCC(=O)NC1c2ccccc2-c2nc(O)c3nc(C(=O)O)cn3c21 (configuration not stated)
1.7
NC1c2ccccc2-c2nc(O)c3nc(C(=O)O)cn3c21 (configuration not stated)
7
O=c1[nH]c2cc(-n3ccnc3)c([N+](=O)[O-])cc2[nH]c1=O [YM-90K]
6.2
O=C(O)c1cn2c3c(nc(O)c2n1)-c1ccccc1C3N1CC=CC1=O (configuration not stated)
7.7
CC1(CCCCC(=O)O)c2ccccc2-c2nc(O)c3nc(C(=O)O)cn3c21 (configuration not stated)
9.5
O=C(O)c1cn2c3c(nc(O)c2n1)-c1ccccc1C3n1cccc1 (configuration not stated)
10

###

Target: Glutamate NMDA receptor
Experiment: Displacement of [3H]DCKA from glycine NMDA receptor of rat cortical membranes
pIC50: −log10 of the molar value.
measuredParameter: pIC50

O=Nc1c2n3cc(C(=O)O)[nH]c3c(O)nc-2c2ccccc12
6.23
O=C(O)c1cn2c3c(nc(O)c2n1)-c1ccccc1C3n1cccc1 (stereo not given)
7.49
O=C(O)c1cn2c3c(nc(O)c2n1)-c1ccccc1C3=O
6.37
CC1(CCCCC(=O)O)c2ccccc2-c2nc(O)c3nc(C(=O)O)cn3c21 (stereo not given)
6.87
O=C(O)CCCO/N=C1\c2ccccc2-c2nc(O)c3nc(C(=O)O)cn3c21
5.85
O=C(Nc1ccccc1)NC1c2ccccc2-c2nc(O)c3nc(C(=O)O)cn3c21 (stereo not given)
7.74
O=C(O)c1cn2c3c(nc(O)c2n1)-c1ccccc1C3N1CC=CC1=O (stereo not given)
6.74
O=C(O)CCC(=O)NC1c2ccccc2-c2nc(O)c3nc(C(=O)O)cn3c21 (stereo not given)
6.64
NC1c2ccccc2-c2nc(O)c3nc(C(=O)O)cn3c21 (stereo not given)
6.80

All values here come from ChEMBL document CHEMBL1134261.
